molecular target: PvG6PD (Plasmodium vivax); experiment: PvG6PD enzyme inhibition assay (NADPH formation, absorbance 340 nm / fluorescence); assay type: biochemical; conditions: substrate saturation (800 µM G6P, 200 µM NADP+); read-out: IC50 on PvG6PD
Sequence (A5K3M1 entry or part of it): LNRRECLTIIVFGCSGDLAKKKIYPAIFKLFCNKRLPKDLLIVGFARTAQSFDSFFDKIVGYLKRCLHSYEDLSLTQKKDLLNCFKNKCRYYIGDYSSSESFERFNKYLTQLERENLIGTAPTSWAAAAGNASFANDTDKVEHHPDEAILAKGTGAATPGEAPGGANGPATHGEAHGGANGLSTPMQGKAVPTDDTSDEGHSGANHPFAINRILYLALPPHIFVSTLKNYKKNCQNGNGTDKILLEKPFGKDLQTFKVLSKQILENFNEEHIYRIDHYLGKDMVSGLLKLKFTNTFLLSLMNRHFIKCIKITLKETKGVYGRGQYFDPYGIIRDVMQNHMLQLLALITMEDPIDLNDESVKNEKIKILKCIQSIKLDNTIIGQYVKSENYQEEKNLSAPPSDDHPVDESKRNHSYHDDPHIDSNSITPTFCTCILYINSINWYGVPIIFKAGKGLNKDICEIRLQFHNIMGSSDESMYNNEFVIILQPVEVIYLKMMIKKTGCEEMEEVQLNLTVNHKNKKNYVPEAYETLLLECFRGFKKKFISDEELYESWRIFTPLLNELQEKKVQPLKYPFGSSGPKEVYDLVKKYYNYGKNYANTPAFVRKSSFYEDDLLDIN
Measurement type: IC50 (µM)
Please state the figure in µM; there is no need to write the unit.

Query :: Param readout= IC50; system= PvG6PD (Plasmodium vivax); entry= CCN1CCC[C@@H]1CNC(=O)c1ccc2c(c1)NC(=O)c1cccc(C)c1S2 ; returns value.
Result :: 15.3

====

biological target: hG6PD (Homo sapiens, UniProt P11413); construct: made in house; assay: hG6PD enzyme inhibition assay; format: biochemical; details: mean ± SD; only one enzyme batch; read-out: IC50 on hG6PD
Sequence (P11413 whole entry): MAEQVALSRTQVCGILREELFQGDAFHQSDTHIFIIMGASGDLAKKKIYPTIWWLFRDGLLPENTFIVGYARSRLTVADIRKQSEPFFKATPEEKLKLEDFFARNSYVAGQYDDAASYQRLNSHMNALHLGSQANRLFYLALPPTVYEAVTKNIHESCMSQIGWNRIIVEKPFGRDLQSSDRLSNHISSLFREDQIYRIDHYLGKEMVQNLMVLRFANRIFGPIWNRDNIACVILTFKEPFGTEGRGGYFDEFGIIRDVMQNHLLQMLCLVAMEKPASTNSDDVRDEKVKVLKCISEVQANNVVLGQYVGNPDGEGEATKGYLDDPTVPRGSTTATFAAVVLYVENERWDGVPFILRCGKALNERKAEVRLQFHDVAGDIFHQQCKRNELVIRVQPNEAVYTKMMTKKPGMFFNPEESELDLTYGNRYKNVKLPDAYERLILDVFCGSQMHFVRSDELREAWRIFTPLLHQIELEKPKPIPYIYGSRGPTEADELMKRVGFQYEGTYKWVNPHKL
# IC50 per entry

O=[N+]([O-])C(C(Cl)=C(Cl)Cl)=C1N(c2ccccc2)CCN1c1ccccc1 [20 (vz0005)]    > 100 µM
O=C(O)C(Cl)(C=C(Cl)Cl)[N+](=O)[O-] (stereo not drawn) [10 (vz1204)]    > 100 µM

Turning now to a further compound:
Query :: Param item = O=CC(Cl)=C(I)I [13 (vz0288)] ; retrieve measured IC50.
Result :: > 100 µM

Recorded values, source paper PMC6346587.
